FYI, the data here is from patent US8765741B2.

- systemTested: NS5B polymerase (Hepatitis C virus genotype 1b)
- testSummary: biochemical
- testContext: NS5B polymerase inhibition; 20 nM enzyme, 75 min at 28° C.; read-out: IC50
IC50 by entry:

Consider the following illustrative entries.
| molecule | systemTested | IC50 |
| --- | --- | --- |
| CS(=O)(=O)Nc1ccc2c(c1)S(=O)(=O)N=C(C1=C(O)C3C4CCC(C4)C3N(Cc3ccc(F)cn3)C1=O)N2 (racemic) | NS5B polymerase (Hepatitis C virus genotype 1b) | 100 to 1000 nM |
| CC(C)CCN1C(=O)C(C2=NS(=O)(=O)c3cc(N(C)S(C)(=O)=O)ccc3N2)=C(O)[C@@H]2[C@H]3CC[C@H](C3)[C@@H]21 | NS5B polymerase (Hepatitis C virus genotype 1b) | 100 to 1000 nM |
| O=C1C(C2=NS(=O)(=O)c3cc(I)ccc3N2)=C(O)[C@@H]2[C@H]3CC[C@H](C3)[C@@H]2N1Cc1ccc(F)cc1 | NS5B polymerase (Hepatitis C virus genotype 1b) | 1000 to 100000 nM |

Input: Can you look up the measured IC50 of CC(C)CCN1C(=O)C(C2=NS(=O)(=O)c3cc(I)ccc3N2)=C(O)[C@@H]2[C@H]3CC[C@H](C3)[C@@H]21 for me?
Output: 1000 to 100000 nM

Input: Recorded IC50 of CN(c1ccc2c(c1)S(=O)(=O)N=C(C1=C(O)C3C4C=CC(C4)C3N(Cc3ccc(F)cc3)C1=O)N2)S(C)(=O)=O (racemic) , please.
Output: 1000 to 100000 nM

====

Known pIC50 of a selection of molecules
- systemTested: NS5B polymerase (Hepatitis C virus genotype 1b, UniProt P26663)
- Sequence (P26663 2420-3010): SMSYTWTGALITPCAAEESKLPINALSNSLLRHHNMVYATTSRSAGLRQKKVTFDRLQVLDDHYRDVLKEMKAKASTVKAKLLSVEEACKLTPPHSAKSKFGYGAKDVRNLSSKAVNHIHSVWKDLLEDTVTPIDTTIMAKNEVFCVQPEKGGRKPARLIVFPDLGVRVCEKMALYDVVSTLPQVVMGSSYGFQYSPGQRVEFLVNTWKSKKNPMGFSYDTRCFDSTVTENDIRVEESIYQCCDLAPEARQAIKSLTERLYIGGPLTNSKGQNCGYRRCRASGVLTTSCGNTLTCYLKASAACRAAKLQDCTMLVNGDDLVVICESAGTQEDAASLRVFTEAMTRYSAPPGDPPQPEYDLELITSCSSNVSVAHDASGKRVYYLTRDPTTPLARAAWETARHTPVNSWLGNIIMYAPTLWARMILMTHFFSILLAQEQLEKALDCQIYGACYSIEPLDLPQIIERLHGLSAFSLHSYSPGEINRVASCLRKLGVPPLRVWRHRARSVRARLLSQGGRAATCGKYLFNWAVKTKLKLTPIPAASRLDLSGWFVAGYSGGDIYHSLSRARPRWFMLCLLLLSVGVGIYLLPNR
- testSummary: biochemical
pIC50: −log10 of the molar value.

| molecule | pIC50 |
| --- | --- |
| CS(=O)(=O)Nc1ccc2c(c1)S(=O)(=O)N=C(C1=C(O)C3C4CCC(C4)C3N(Cc3ccc(F)cc3)C1=O)N2 (racemic) [Example 1] | > 7.70 |

Input: Fill blank: measured pIC50 of the molecule CS(=O)(=O)Nc1ccc2c(c1)S(=O)(=O)N=C(C1=C(O)[C@H]3[C@H]4CC[C@H](C4)[C@H]3N(Cc3ccc(F)cc3)C1=O)N2 [Example 5] is ____.
Output: 6.00 to 7.00

Input: Look up pIC50 for this molecule: CS(=O)(=O)Nc1ccc2c(c1)S(=O)(=O)N=C(C1=C(O)[C@@H]3[C@@H]4CC[C@@H](C4)[C@@H]3N(Cc3ccc(F)cc3)C1=O)N2 [Example 4]
Output: > 7.70

Input: Give its pIC50 value. Item: CS(=O)(=O)Nc1ccc2c(c1)S(=O)(=O)N=C(C1=C(O)[C@@H]3[C@H]4CC[C@H](C4)[C@@H]3N(Cc3ccc(F)cc3)C1=O)N2 [Example 6]
Output: > 7.70

Input: Would you mind telling me what pIC50 value was observed for CS(=O)(=O)Nc1ccc2c(c1)S(=O)(=O)N=C(C1=C(O)[C@H]3[C@@H]4CC[C@@H](C4)[C@H]3N(Cc3ccc(F)cc3)C1=O)N2 [Example 7] ?
Output: 6.00 to 7.00

====

- systemTested: NS5B polymerase (Hepatitis C virus genotype 1b)
- testSummary: biochemical
- testContext: NS5B polymerase inhibition; 20 nM enzyme, 75 min at 28° C.; read-out: IC50
// values below are reported IC50

| compound | IC50 |
| --- | --- |
| CS(=O)(=O)Nc1ccc2c(c1)S(=O)(=O)N=C(C1=C(O)C3C4CCC(O4)C3N(C3CCCC3)C1=O)N2 (racemic) [Example 48] | 20 to 100 nM |
| CC(C)CCN1C(=O)C(C2=NS(=O)(=O)c3cc(NS(=O)(=O)C4CC4)ccc3N2)=C(O)C2C1[C@@H]1CC[C@H]2C1 (stereo partly drawn) [Example 40] | 20 to 100 nM |
| CC(C)CCN1C(=O)C(C2=NS(=O)(=O)c3cc(N(C)S(C)(=O)=O)ccc3N2)=C(O)C2C3CCC(O3)C21 (racemic) [Example 59] | 100 to 1000 nM |
| CS(=O)(=O)Nc1ccc2c(c1)S(=O)(=O)N=C(C1=C(O)[C@@H]3[C@H]4CC[C@H](C4)[C@@H]3N(Cc3ccc(F)c(F)c3)C1=O)N2 [Example 16] | < 20 nM |

Input: I'd like to know its IC50. The compound in question is CS(=O)(=O)Nc1ccc2c(c1)S(=O)(=O)N=C(C1=C(O)[C@@H]3C4CCC(CC4)[C@@H]3N(Cc3ccc(F)cc3)C1=O)N2 [Example 49]
Output: < 20 nM

Input: Please report the recorded IC50 for CS(=O)(=O)Nc1ccc2c(c1)S(=O)(=O)C=C(C1=C(O)[C@@H]3[C@H]4CC[C@H](C4)[C@@H]3N(Cc3ccc(F)cc3)C1=O)N2 [Example 29] .
Output: < 20 nM

====

- systemTested: NS5B polymerase (Hepatitis C virus genotype 1b)
- testSummary: biochemical
- testContext: NS5B polymerase inhibition; 20 nM enzyme, 75 min at 28° C.; read-out: IC50
- Experimental: Compounds were tested for HCV polymerase inhibition. […] After washing and drying the plate, incorporated radioactivity was counted using a Microbeta scintillation counter. IC50 values were calculated relative to the uninhibited control and inhibition data were fitted to a 4-parameter IC50 equation.
pIC50: −log10 of the molar value.
readoutKind: pIC50

Worked cases, pIC50 given:
| molecule | experimentalResult |
| --- | --- |
| CS(=O)(=O)Nc1ccc2c(c1)S(=O)(=O)N=C(C1=C(O)[C@@H]3[C@H]4CC[C@H](C4)[C@@H]3NC1=O)N2 | 4.00 to 6.00 |
| CC(C)CCN1C(=O)C(C2=NS(=O)(=O)c3cc(I)ccc3N2)=C(O)C2C3CCC(O3)C21 (racemic) | 4.00 to 6.00 |
| CS(=O)(=O)Nc1ccc2c(c1)S(=O)(=O)N=C(C1=C(O)[C@H]3[C@H]([C@@H]4CC[C@H]3O4)N(Cc3ccc(F)cc3)C1=O)N2 | > 7.70 |
| Nc1ccc2c(c1)S(=O)(=O)N=C(C1=C(O)[C@@H]3[C@H]4CC[C@H](C4)[C@@H]3N(Cc3ccc(F)cc3)C1=O)N2 | 6.00 to 7.00 |
| CS(=O)(=O)Nc1ccc2c(c1)S(=O)(=O)N=C(C1=C(O)C3C4CCC(O4)C3N(Cc3ccc(F)cc3)C1=O)N2 (racemic) | > 7.70 |

Input: Look at this molecule and give its reported pIC50. O=C1C(C2=NS(=O)(=O)c3cc(N4CCCS4(=O)=O)ccc3N2)=C(O)[C@@H]2[C@H]3CC[C@H](C3)[C@@H]2N1Cc1ccc(F)cc1
Output: 6.00 to 7.00

Input: Could you tell me which pIC50 is on file for CC(C)CCN1C(=O)C(C2=NS(=O)(=O)c3cc(NS(C)(=O)=O)ccc3N2)=C(O)[C@@H]2[C@H]3CC[C@H](C3)[C@@H]21 ?
Output: 7.00 to 7.70

Input: For the molecule O=C1C(C2=NS(=O)(=O)c3cc(C4=CCCS4(=O)=O)ccc3N2)=C(O)[C@@H]2[C@H]3CC[C@H](C3)[C@@H]2N1Cc1ccc(F)cc1 , what pIC50 is on record?
Output: 6.00 to 7.00

Input: // pIC50 lookup, key: CS(=O)(=O)Nc1ccc2c(c1)S(=O)(=O)N=C(C1=C(O)C3C4CCC(C5CC54)C3N(Cc3ccc(F)cc3)C1=O)N2 (racemic)
Output: 7.00 to 7.70

Input: Item under review: CS(=O)(=O)Nc1ccc2c(c1)S(=O)(=O)N=C(C1=C(O)[C@@H]3[C@H]4CC[C@H](CC4)[C@@H]3N(Cc3ccc(F)cc3)C1=O)N2 (relative stereo) . Reported pIC50?
Output: > 7.70

Input: Give its pIC50 value. Item: Cc1cc(CN2C(=O)C(C3=NS(=O)(=O)c4cc(N(C)S(C)(=O)=O)ccc4N3)=C(O)[C@@H]3[C@H]4CC[C@H](C4)[C@@H]32)ccc1F
Output: 7.00 to 7.70

Input: Can you look up the measured pIC50 of O=C1C(C2=NS(=O)(=O)c3cc(NS(=O)(=O)c4cccnc4)ccc3N2)=C(O)C2C([C@@H]3CC[C@H]2C3)N1Cc1ccc(F)cc1 (stereo partly drawn) for me?
Output: 6.00 to 7.00

====

Recorded IC50 values for a group of compounds are listed next.
- systemTested: UniProt:P26663
- testSummary: biochemical
- testContext: NS5B polymerase inhibition; 20 nM enzyme, 75 min at 28° C.; read-out: IC50

Input: Write down the reported IC50 of CS(=O)(=O)Nc1ccc2c(c1)S(=O)(=O)N=C(C1=C(O)C3C(C4CC(O)[C@H]3C4)N(Cc3ccc(F)cc3)C1=O)N2 (stereo in doubt) [Example 67] , test system: UniProt:P26663.
Output: < 20 nM

Input: Request body: readout IC50, system UniProt:P26663, query CS(=O)(=O)Nc1ccc2c(c1)S(=O)(=O)N=C(C1=C(O)[C@@H]3[C@H]4CC[C@H](C4)[C@@H]3N(Cc3ccccc3)C1=O)N2 [Example 56] . Return the value.
Output: < 20 nM

Input: Item Cc1ccc(CN2C(=O)C(C3=NS(=O)(=O)c4cc(NS(C)(=O)=O)ccc4N3)=C(O)[C@@H]3[C@H]4CC[C@H](C4)[C@@H]32)cc1F [Example 60] with UniProt:P26663 - IC50?
Output: 20 to 100 nM

Input: Short answer please: IC50, UniProt:P26663, entry O=C1C(C2=NS(=O)(=O)c3cc(NS(=O)(=O)C4CC4)ccc3N2)=C(O)C2C([C@@H]3CC[C@H]2C3)N1Cc1ccc(F)cc1 (stereo partly shown) [Example 35]
Output: 20 to 100 nM
